Ref: ChEMBL document CHEMBL1144399

subjectOfTest: Melanocortin receptor 5 (Mus musculus, UniProt P41149)
Sequence (P41149 whole entry): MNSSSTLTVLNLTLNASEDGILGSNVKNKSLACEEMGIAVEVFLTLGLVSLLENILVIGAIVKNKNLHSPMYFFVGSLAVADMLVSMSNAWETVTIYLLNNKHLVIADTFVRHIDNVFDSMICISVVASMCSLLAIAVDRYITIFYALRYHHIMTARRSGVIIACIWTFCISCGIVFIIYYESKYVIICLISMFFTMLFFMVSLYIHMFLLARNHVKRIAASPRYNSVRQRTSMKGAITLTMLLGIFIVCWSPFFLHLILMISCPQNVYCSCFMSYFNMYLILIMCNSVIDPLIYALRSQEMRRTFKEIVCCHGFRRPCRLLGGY
assayOverview: Effective concentration against mouse melanocortin receptor-5 expressed in 293 HEK cells
pEC50: −log10 of the molar value.
quantityKind: pEC50

1: CCCC[C@H](NC(C)=O)C(=O)NCC(=O)N[C@@H](CCCCN)C(=O)N[C@H](Cc1ccccc1)C(=O)N(CCCNC(=N)N)CC(=O)N[C@@H](Cc1c[nH]c2ccccc12)C(=O)NCC(N)=O
2: CCCC[C@H](NC(C)=O)C(=O)NCC(=O)N[C@@H](CCCCN)C(=O)N[C@H](Cc1ccccc1)C(=O)N(CCCNC(=N)N)CC(=O)N(CC(=O)NCC(N)=O)Cc1c[nH]c2ccccc12
Input: Hi, I'm comparing 1 with 2 and wondering which one has the bigger number for pEC50. Any idea? Give the label of your selection.
Output: 2
(2: 7.00, 1: 6.60)

###

subjectOfTest: Melanocortin receptor 3 (Homo sapiens, UniProt P41968)
Sequence (P41968 whole entry): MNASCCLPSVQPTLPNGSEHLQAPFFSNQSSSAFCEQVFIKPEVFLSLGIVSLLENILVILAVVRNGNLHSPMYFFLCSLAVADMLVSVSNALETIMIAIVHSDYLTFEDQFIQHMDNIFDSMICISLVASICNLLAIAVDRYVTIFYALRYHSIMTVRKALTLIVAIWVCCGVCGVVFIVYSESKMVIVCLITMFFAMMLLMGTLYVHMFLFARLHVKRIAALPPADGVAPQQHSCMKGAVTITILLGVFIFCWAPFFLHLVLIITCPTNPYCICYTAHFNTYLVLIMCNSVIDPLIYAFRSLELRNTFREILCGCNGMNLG
assayOverview: Displacement of [125I]NDP-MSH from human melanocortin receptor-3 expressed in 293 HEK cells
pIC50: −log10 of the molar value.
quantityKind: pIC50

1: CCCC[C@H](NC(C)=O)C(=O)NCC(=O)N[C@@H](CCCCN)C(=O)N[C@H](Cc1ccccc1)C(=O)N(CCCCN=C(N)N)CC(=O)N[C@@H](Cc1c[nH]c2ccccc12)C(=O)NCC(N)=O
2: CCCC[C@H](NC(C)=O)C(=O)NCC(=O)N[C@@H](CCCCN)C(=O)N[C@H](Cc1ccccc1)C(=O)N(CCCNC(=N)N)CC(=O)N(CCc1c[nH]c2ccccc12)CC(=O)NCC(N)=O
3: CCCC[C@H](NC(C)=O)C(=O)NCC(=O)N[C@@H](CCCCN)C(=O)N[C@H](Cc1ccccc1)C(=O)N(CCCCNC(=N)N)CC(=O)N(CCc1c[nH]c2ccccc12)CC(=O)NCC(N)=O
Input: Arrange these compounds by their pIC50, starting with the largest number. Arrange the labels as the request states and list them.
Output: 3, 2, 1

###

subjectOfTest: Melanocortin receptor 4 (Homo sapiens)
Sequence (P32245 whole entry): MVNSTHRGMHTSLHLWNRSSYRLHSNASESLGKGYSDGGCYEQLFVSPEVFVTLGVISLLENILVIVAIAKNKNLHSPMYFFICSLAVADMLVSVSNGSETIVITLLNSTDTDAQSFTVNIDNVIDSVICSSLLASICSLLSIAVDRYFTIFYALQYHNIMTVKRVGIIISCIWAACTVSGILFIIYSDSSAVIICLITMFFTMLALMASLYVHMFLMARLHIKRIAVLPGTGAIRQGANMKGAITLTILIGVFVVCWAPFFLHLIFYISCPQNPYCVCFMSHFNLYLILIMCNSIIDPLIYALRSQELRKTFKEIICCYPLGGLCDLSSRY
assayOverview: Displacement of [125I]NDP-MSH from human melanocortin receptor-4 expressed in 293 HEK cells
pIC50: −log10 of the molar value. Where a SMILES comes first, the peptide text is derived from it. [ ]: non-standard residue; d: D form. Nphe = O=C(O)CNCc1ccccc1; NBuGly = CCCCNCC(=O)O
quantityKind: pIC50

compound: CCCCN(CC(=O)NCC(=O)N[C@@H](CCCCN)C(=O)N[C@H](Cc1ccccc1)C(=O)N(CCCN=C(N)N)CC(=O)N(CCc1c[nH]c2ccccc12)CC(=O)NCC(N)=O)C(C)=O
pIC50: 6.60

a: CCCC[C@H](NC(C)=O)C(=O)NCC(=O)N[C@@H](CCCCN)C(=O)N[C@H](Cc1ccccc1)C(=O)N(CCCCNC(=N)N)CC(=O)N(CCc1c[nH]c2ccccc12)CC(=O)NCC(N)=O
b: CCCCN(CC(=O)NCC(=O)N(CCCCN)CC(=O)N[C@H](Cc1ccccc1)C(=O)N[C@@H](CCCN=C(N)N)C(=O)N(CCc1c[nH]c2ccccc12)CC(=O)NCC(N)=O)C(C)=O
c: CCCCN(CC(=O)NCC(=O)N[C@@H](CCCCN)C(=O)N(CC(=O)N[C@@H](CCCN=C(N)N)C(=O)N[C@@H](Cc1c[nH]c2ccccc12)C(=O)NCC(N)=O)Cc1ccccc1)C(C)=O (Ac-[NBuGly]GK[Nphe]RWG-NH2)
d: CCCC[C@H](NC(C)=O)C(=O)NCC(=O)N[C@@H](CCCCN)C(=O)N[C@H](Cc1ccccc1)C(=O)N(CCCNC(=N)N)CC(=O)N(CC(=O)NCC(N)=O)Cc1c[nH]c2ccccc12
Input: Put the items in order so that reported pIC50 rises from first to last. Arrange the labels as the request states and list them.
Output: c, b, d, a
(c: 5.30, b: 5.70, d: 6.50, a: 6.80)

###

subjectOfTest: Melanocortin receptor 5 (Mus musculus)
assayOverview: Effective concentration against mouse melanocortin receptor-5 expressed in 293 HEK cells
pEC50: −log10 of the molar value.
quantityKind: pEC50

structure: CCCC[C@H](NC(C)=O)C(=O)NCC(=O)N[C@@H](CCCCN)C(=O)N[C@H](Cc1ccccc1)C(=O)N[C@@H](CCCNC(=N)N)C(=O)N[C@@H](Cc1c[nH]c2ccccc12)C(=O)NCC(N)=O
subjectOfTest: Melanocortin receptor 5 (Mus musculus)
measured: 7.50

A: CCCC[C@H](NC(C)=O)C(=O)NCC(=O)N[C@@H](CCCCN)C(=O)N[C@H](Cc1ccccc1)C(=O)N(CCCCN=C(N)N)CC(=O)N[C@@H](Cc1c[nH]c2ccccc12)C(=O)NCC(N)=O
B: CCCCN(CC(=O)NCC(=O)N[C@@H](CCCCN)C(=O)N[C@H](Cc1ccccc1)C(=O)N[C@@H](CCCNC(=N)N)C(=O)N(CC(=O)NCC(N)=O)Cc1c[nH]c2ccccc12)C(C)=O
Input: Hi, I'm comparing A with B and wondering which one has the bigger number for pEC50. Any idea? Give the label of your selection.
Output: A
